Measurement protocol: cytotoxicity toward NIH3T3 fibroblasts, dose response, counter-screen, cell-based, ATP luminescence, mouse fibroblasts (AID 2010);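 further: cells exposed to compound for about 90 hours before reading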
Format: functional
Calls of active or inactive are those of the source. No stated cut-off is given here; in the data, actives have a measured EC50 and inactives only a lower limit.
Assay endpoint: EC50

Worked examples follow.
COc1ccccc1C1CCN(Cc2ccc3ccccc3c2)CC1 :: > 60 µM (not active)
Cc1ccc(CN2CCN(CC(=O)N=Nc3c(O)[nH]c4ccccc34)CC2)cc1 :: > 60 µM (not active)
O=C(NC(Nc1cc(C(F)(F)F)ccc1Cl)C(=O)c1ccccc1)c1ccccc1 (centres undefined) :: > 30 µM (not active)
O=C(N/N=C/c1ccc(-c2cccc([N+](=O)[O-])c2)o1)c1cccs1 :: > 60 µM (not active)
O=C(COC(=O)c1c2c(nc3ccccc13)/C(=C\c1cccs1)CCC2)Nc1ccccc1 :: > 60 µM (inconclusive)

For the compound shown here, O=Cc1s/c(=N\S(=O)(=O)c2ccccc2)n(CCCCl)c1Cl , give the reported EC50.
2.82 µM (active)

For the compound shown here, Cc1c(O)ccc2c(CN3CCN(Cc4ccccc4)CC3)cc(=O)oc12 , give the reported EC50.
> 60 µM (not active)

For the compound shown here, Cc1ccc(C)c(N2CCN(C(=O)CCCCCn3c(=S)[nH]c4ccc(N5CCOCC5)cc4c3=O)CC2)c1 , give the reported EC50.
16.5 µM (active)

For the compound shown here, CC(C)(C)c1ccc(C(=O)NNc2cc(N3CCCCC3)nc(N3CCCCC3)n2)cc1 , give the reported EC50.
> 60 µM (not active)
